system: Trypanosoma brucei brucei; assay: WHO-TDR: Human African Trypanosomiasis (HAT); assay type: functional, organism-based; details: Squib-427
endpoint_label: IC50 (µg/mL)
Answer with a number only, understood to be in µg/mL.

Some solved cases for reference:
CCCc1cc(=O)[nH]c(-n2nc(C)cc2NC(=O)c2ccc(Br)o2)n1 : 0.39
CC(C)N1CCc2c(sc(NC(=O)c3cc4c(ccc5ccccc54)oc3=O)c2C(N)=O)C1 : 0.478
CN(C)CCCN(C(=O)/C=C/c1ccccc1Cl)c1nc2cc3c(cc2s1)OCO3 : 0.428

Kindly consider the entry below.
// query Which IC50 value is on record for Cc1c(Cl)cccc1-n1c(-c2ccc(F)cc2)cn2c3c(=O)n(C)c(=O)n(C)c3nc12 ?
// result 3.81
